# protocolSummary: Toxicity liver stage against HepG2, at 10uM
# Assay type: cell-based
# Design: test concentration 10 uM, cell line HepG2-A16-CD81EGFP
# measurementConditions: human, HepG2-A16-CD81EGFP cells; read-out: INHIBITION
List of cytotoxicity at 10 µM values.
Field format: number, assumed %, no unit text.

>>> print(df.to_string())
                                   compound          propertylabel  unitspec  measurednumber
0  COc1ccccc1OC1CCN(C(=O)c2c[nH]c(=O)[nH]c2=O)CC1  cytotoxicity at 10 µM         %            8.45
1            Cc1ccc(Cc2cnc(C3CCNCC3)cn2)cc1  cytotoxicity at 10 µM         %           -31.2
2      CS(=O)(=O)CCn1ccc(NCc2ccc(C#N)cc2)n1  cytotoxicity at 10 µM         %            6.56
3  O=c1[nH]c(N2CCCCC2)nc2c1CCN(Cc1cccnc1)C2  cytotoxicity at 10 µM         %           -3.07
4  O=C(c1ccno1)N1CCCC(c2ncncc2-c2ccncc2)C1 (configuration not stated)  cytotoxicity at 10 µM         %           -19.9

Input: Quick check: cytotoxicity at 10 µM of COc1ccc(CN2CCO[C@H]3CN(C4CCC4)CC[C@H]3C2=O)cc1 ?
Output: -148

Input: Proceed to O=C(NCCc1ccncc1)c1ccc(S(=O)(=O)NC2CCC2)cc1
Output: -7.54

Input: Proceed to Cc1ccc2nc(CSCC(=O)Nc3nnc(C(C)C)s3)cc(=O)n2c1
Output: -4.44

Input: Proceed to CN(Cc1nc2ccccc2[nH]1)C(=O)CN(C)c1ccccc1
Output: -2.46

Input: Proceed to CCn1c(C2CCCN2Cc2noc(C(C)(C)C)n2)nc2ccccc21 (configuration not stated)
Output: 3.18

Input: Proceed to CNC(=O)Cn1ccc2ccc(NC(=O)C(C)CSC)cc21 (configuration not stated)
Output: -1.1

Input: Proceed to OCCOCc1ncn2c1CN(Cc1cccs1)CCC2
Output: -82.9

Input: Proceed to Cc1ccc(NC(=O)CNC(C)CN2CCCCC2)c(F)c1 (configuration not stated)
Output: -51.6

====

List of cytotoxicity at 10 µM values.
# protocolSummary: Toxicity liver stage against HepG2, at 10uM
# Assay type: cell-based
# Design: test concentration 10 uM, cell line HepG2-A16-CD81EGFP
# measurementConditions: human, HepG2-A16-CD81EGFP cells; read-out: INHIBITION
Units required after the number.

>>> df
                                   molecule          propertylabel   result
0  Cc1ccc(-c2nc(CNC(C)Cn3cccn3)cs2)o1 (stereo unspecified)  cytotoxicity at 10 µM   -7.82%
1  CC(C)c1cc(NC(=O)c2ccc(C(=O)NC(C)(C)C)cc2)[nH]n1  cytotoxicity at 10 µM  -0.164%
2   Cc1oc(C(=O)Nc2cccc(Cl)c2C)cc1S(N)(=O)=O  cytotoxicity at 10 µM    7.46%

Input: Quick check: cytotoxicity at 10 µM of COCCn1ccc(=O)c(OCC(=O)Nc2cccc(OC)c2)c1C ?
Output: -2.74%
